Listed below are compounds with IC50 for Autotaxin (Homo sapiens), each taken from published literature.

Compound | Target entity | Endpoint name | Result
Cn1c(COc2cc(C#N)c(Cl)cc2C2CC2)n[nH]c1=O | Autotaxin (Homo sapiens) | IC50 | 173 nM
CCCCCC1CN(CC(=O)N2CCC(C(N)=O)C2)C(=O)c2cc(-c3ccc(Cl)cc3)nn21 (centres unmarked) | Autotaxin (Homo sapiens) | IC50 | 100 to 1000 nM
CCCCC1CN(Cc2ccc(C#N)cc2)C(=O)c2cc(N3CCC(C#N)CC3)nn21 (centres unmarked) | Autotaxin (Homo sapiens) | IC50 | ≥ 1000 nM
CCCCC1CN(Cc2ccncc2)C(=O)c2cc(-c3ccc(Cl)cc3)nn21 (centres unmarked) | Autotaxin (Homo sapiens) | IC50 | 100 to 1000 nM
CCCCCC1CN(CC(=O)N2CCC(c3ccccc3)C2)C(=O)c2cc(-c3ccc(Cl)cc3)nn21 (centres unmarked) | Autotaxin (Homo sapiens) | IC50 | 100 to 1000 nM

(Q) What value of IC50 on Autotaxin (Homo sapiens) does COc1ccc2c(c1)CC(Nc1ncc(C(=O)N3CCC34COC4)cn1)C2 (centres unmarked) have?
(A) 100 to 1000 nM

(Q) Kindly state the measured IC50 obtained for CCc1ccc(F)c(C(=O)N[C@@H](C(=O)N2CCC3(CC2)C(=O)N(C)CN3c2ccc(NS(C)(=O)=O)cc2)C(C)C)c1 with Autotaxin (Homo sapiens).
(A) < 500 nM

(Q) Item NS(=O)(=O)c1ccc(C(=O)N2C[C@H]3CN(C(=O)c4cc(OCC5CCOCC5)nc(C5CC5)c4)C[C@@H]3C2)cc1F with Autotaxin (Homo sapiens) - IC50?
(A) 8 nM

(Q) Return IC50 measured with Autotaxin (Homo sapiens) given this compound: CC(C)Oc1cc(C(=O)N2C[C@H]3CN(C(=O)c4ccc(S(N)(=O)=O)cc4)C[C@H]3C2)nc2ccccc12
(A) 93 nM

(Q) Please tell me: IC50 of C[C@H]1CC[C@@H](Oc2ccc3cc(CN4CCC[C@H](CC(=O)O)C4)ccc3c2C(F)F)CC1 , system Autotaxin (Homo sapiens)?
(A) ≤ 100 nM

---

Target or system Autotaxin (Homo sapiens, UniProt Q13822); metric IC50; compiled from varied reports.
Expressed in µM, but write only the number.

Guide cases for IC50, answers given:
Compound | Numeric readout
Cn1c(COc2cc(C#N)c(Cl)cc2C(C)(C)C)n[nH]c1=O | 0.028
CC(C)Oc1cc(C(=O)N2C[C@@H]3CN(C(=O)[C@@H]4CCc5[nH]nnc5C4)C[C@H]3C2)cc2ccccc12 | 0.007
O=C(/C=C/c1ccccc1)N1CC[C@@H]2CN(C(=O)c3ccc4[nH]nnc4c3)C[C@@H]2CC1 | 0.156

(Q) Please provide the recorded IC50 for O=C(c1ccc(OC2CCOC2)c(C2CC2)c1)N1C[C@@H]2CN(C(=O)c3ccc4[nH]nnc4c3)C[C@H]2C1 (stereo partly drawn) , tested on Autotaxin (Homo sapiens, UniProt Q13822).
(A) 0.01

(Q) Under Autotaxin (Homo sapiens, UniProt Q13822): IC50 value of CCc1nc2ccc(-c3cnc(C(=O)NC4CC5(CNC5)C4)cn3)cn2c1N(C)c1nc(-c2ccc(F)cc2)c(C#N)s1 ?
(A) 0.04

(Q) Any idea what IC50 came out for CS(=O)(=O)c1cc(Cl)cc(COC(=O)N2C[C@@H]3CN(C(=O)[C@@H]4CCc5[nH]nnc5C4)C[C@H]3C2)c1 on Autotaxin (Homo sapiens, UniProt Q13822)?
(A) 0.005

---

# IC50 against UniProt Q13822, merged from multiple literature sources

Molecule | Target entity | IC50
O=C(c1cnc(NCc2cc(OC(F)(F)F)cc(C3CC3)c2)nc1)N1CC(O)C1 | UniProt Q13822 | 100 to 1000 nM
CCc1cccc(C(=O)N[C@@H](C(=O)N2CCC3(CC2)C(=O)N(C)CN3c2ccccc2)[C@H](C)OC)c1 | UniProt Q13822 | < 500 nM
CN1CN(c2ccc(C(=O)O)cc2)C2(CCN(C(=O)[C@H](NC(=O)c3cc(C(F)(F)F)ccc3F)C(C)(C)C)CC2)C1=O | UniProt Q13822 | ≥ 1000 nM
O=C(O)CCN1C(=O)[C@@H]2Cc3c(n(Cc4ccc(Cl)cc4F)c4ccccc34)CN2C1=O | UniProt Q13822 | < 500 nM
Cc1cc(OCc2n[nH]c(=O)n2C)c(-c2cc(C(=O)N(C)C)ccc2F)cc1Cl | UniProt Q13822 | 8 nM
O=C(O)[C@H]1CC[C@@H](NCc2ccc3c(C(F)(F)F)c(O[C@H]4CC[C@@H](C(F)(F)F)CC4)ccc3c2)CC1 | UniProt Q13822 | ≤ 500 nM

(Q) Give IC50 (UniProt Q13822) of the following molecule: CC1(C)c2c(n(Cc3ccc(F)cc3)c3ccccc23)CN2C(=O)NC(=O)C21 (single isomer, unassigned)
(A) < 500 nM

(Q) Requested read-out IC50, target or system UniProt Q13822, entry C[C@H]1CN(CC(=O)N2CCCC(C(=O)O)C2)C(=O)c2cc(-c3ccc(Cl)cc3)nn21 (some centres unmarked)
(A) ≥ 1000 nM

(Q) State its IC50 on UniProt Q13822: O=C(OCc1ccc(OCC(F)(F)F)c(F)c1)N1CC[C@@H]2CN(C(=O)c3ccc4[nH]nnc4c3)C[C@@H]2CC1
(A) 2 nM

(Q) # value lookup — system UniProt Q13822, readout IC50, item CC(C)[C@@H](NC(=O)c1cc(OC(F)(F)F)ccc1F)C(=O)N1CCC2(CC1)C(=O)N(C)CN2c1ccc(C(=O)O)cc1
(A) < 500 nM

(Q) For UniProt Q13822, provide IC50 of Cc1cc(OCc2n[nH]c(=O)n2C)c(-c2cc(CN3CC(=O)N(C)CC3=O)ccc2F)cc1Cl please.
(A) 11 nM

---

// compounds with pIC50 on Autotaxin (Homo sapiens), multi-source literature
Schema: pIC50 number; meaning minus log10 of the concentration expressed in molar units.

Item smiles | pIC50
O=C(c1ccc(-c2ccc(Cl)cc2)cc1)N1C[C@@H]2[C@H](C1)[C@H]1CN(C(=O)[C@@H]3CCc4[nH]nnc4C3)C[C@@H]21 | 7.80
Cc1cc(OCc2ccc(=O)[nH]n2)c(C2CCCCC2)cc1Cl | 8.15
O=C(OCc1ccc(C(F)(F)F)cc1)N1CCC2(CC1)CN(C(=O)c1ccc3[nH]c(=O)oc3c1)C2 | 6.36
Cn1c(COc2cc(Cl)c(C#N)cc2-c2cc(OC3CC3)ccc2F)n[nH]c1=O | 8.22

(Q) pIC50 lookup needed for O=C(OC1(c2cccc(Cl)c2)CC1)N1C[C@@H]2CN(C(=O)c3ccc4[nH]nnc4c3)C[C@@H]2C1 , thanks.
(A) 5.83

(Q) What value of measured pIC50 is listed for CCOc1cc(C#N)ccc1OCC(=O)N1C[C@@H]2CN(C(=O)c3ccc4[nH]nnc4c3)C[C@H]2C1 ?
(A) 7.44

(Q) GET /values?readout=pIC50&item= CS(=O)(=O)c1cc(Cl)cc(COC(=O)N2CCC3(CC2)CN(S(=O)(=O)c2ccc4[nH]c(=O)oc4c2)C3)c1
(A) 7.66

(Q) pIC50 for O=C(OCc1ccc(OC(F)(F)F)cc1F)N1C[C@@H]2CN(C(=O)[C@@H]3CCc4[nH]nnc4C3)C[C@H]2C1 ?
(A) 8.52

(Q) // query pIC50 value for entry Cc1cc(CCC(=O)N2C[C@@H]3CN(C(=O)c4ccc5[nH]nnc5c4)C[C@H]3C2)c(C(C)C)cc1C#N
(A) 8.52

(Q) Entry under review: CC(C)c1cc(C#N)ccc1COC(=O)N1C[C@@H]2CN(C(=O)c3ccc4[nH]nnc4c3)C[C@H]2C1 . Reported pIC50?
(A) 8.00

---

pIC50 values for Autotaxin (Homo sapiens) compiled from several publications are listed below.
Quick note: pIC50 means taking -log10 of the concentration in moles per liter.

Solved entries:
Item smiles | pIC50
Cc1cc(OCc2n[nH]c(=O)n2C)c(-c2cccc(C(=O)NC3CCCCC3)c2)cc1Cl | 7.92
O=C(/C=C/c1ccc(F)cc1)N1CC[C@@H]2CN(C(=O)c3ccc4[nH]nnc4c3)C[C@@H]2CC1 | 7.21

Now consider the entry below.
(Q) // fetch Autotaxin (Homo sapiens) pIC50 for CCc1nc2ccc(-c3cnc(C(=O)N4CC(O)C4)cn3)cn2c1N(C)c1nc(-c2ccc(F)cc2)c(C#N)s1
(A) 8.36

---

A compilation of pIC50 values for Autotaxin (Homo sapiens, UniProt Q13822) from the published literature.
Hey, just a heads up that pIC50 is the negative log base 10 of the concentration in molar.

Recorded pIC50, per entry:
Compound | pIC50
O=C(c1cc(OCC2CCCOC2)nc(C2CC2)c1)N1C[C@@H]2CN(Cc3ccc4[nH]nnc4c3)C[C@H]2C1 (some centres unmarked) | 8.00
Cn1c(COc2ccc(-c3ncco3)cc2C(C)(C)C)n[nH]c1=O | 7.89
N#Cc1ccc(OCC(=O)N2CCc3cc(C(=O)N4CCc5[nH]nnc5C4)nn3CC2)c(C2CC2)c1 | 7.96
O=C(CCc1ccc(-c2ccccn2)cc1)N1C[C@@H]2CN(C(=O)c3ccc4[nH]nnc4c3)C[C@H]2C1 | 7.51
O=C(/C=C/c1cccc(Cl)c1)N1CC[C@@H]2CN(C(=O)c3ccc4[nH]nnc4c3)C[C@@H]2CC1 | 7.70
CCOc1cc(C(=O)N2C[C@@H]3[C@H]4CN(C(=O)c5ccc6[nH]nnc6c5)C[C@H]4[C@@H]3C2)cc2c1ccn2CC(F)(F)F | 8.57

Attention now shifts to the item below.
(Q) Find pIC50 (Autotaxin (Homo sapiens, UniProt Q13822)) for the entry CCOc1cc(C(=O)N2C[C@@H]3CN(C(=O)[C@@H]4CCc5[nH]nnc5C4)C[C@H]3C2)nc2ccccc12
(A) 7.92
